# ASSAY PROCEDURE: differential killing of epithelial or mesenchymal cells, primary screen, imaging, PC-3E GFP, TEM4-18 mCherry, co-culture (AID 1345086);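 also: cells exposed to compound for 72 h before imaging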
# STATED CONDITIONS: imaging cell counts, measured here: epithelial PC-3E GFP cell survival, at 1 µM
Label scheme for normalised cell number: lower than 1 is no (0), 1 and above is yes (1).

{"columns": ["COMPOUND", "CLASS ASSIGNMENT"],
 "data": [
  ["CC(=O)O[C@@H]1CC2C(C)(C)[C@H](O)C=C[C@]2(C)C2CC[C@@]3(C)[C@H](c4ccoc4)OC(=O)C4OC43[C@@]21C (stereo partly specified)", "yes (1)"],
  ["COc1cc(OC)c2c(=O)c(O)c(-c3ccc(OC)c(OC)c3)oc2c1", "yes (1)"],
  ["CN(Cc1cnc2nc(N)nc(N)c2n1)c1ccc(C(=O)NC(CCC(=O)O)C(=O)O)cc1 (stereo unspecified)", "yes (1)"],
  ["CC(CC(=O)N1CCOC1=O)N1C(=S)SC[C@H]1c1ccccc1 (stereo partly specified)", "yes (1)"],
  ["C[C@@H](Oc1ccc(Oc2ccc3ncc(Cl)nc3c2)cc1)C(=O)O", "yes (1)"],
  ["CC(C)CC(NC(=O)CCN)C(=O)O (stereo unspecified)", "yes (1)"],
  ["O=C(O)[C@H]1/C(=C/CO)O[C@@H]2CC(=O)N21", "no (0)"],
  ["CC1(C)C[C@@H]2C(=O)CC[C@@H]3O[C@]3(C)CC[C@H]21", "no (0)"],
  ["COC(=O)C(N)CS (stereo unspecified)", "yes (1)"],
  ["COC(=O)c1cc(OC)cc(OC(=O)c2c(O)cc3cc(C)oc(=O)c3c2O)c1O", "no (0)"],
  ["COC(=O)C1O[C@H](OCc2ccccc2)[C@@H](OC(C)=O)[C@@H](OC(C)=O)C1OC(C)=O (stereo partly specified)", "yes (1)"],
  ["O[C@@H]1[C@H](O)CO[C@H]1O", "yes (1)"],
  ["CC(C)(C)OC(=O)NCCCC(NC(=O)C(Cc1ccccc1)NC(=O)OC(C)(C)C)C(=O)O (stereo unspecified)", "yes (1)"],
  ["NCC1O[C@@H](OC2C(N)C[C@@H](N)C(OC3OC(CO)[C@@H](O)C(N)[C@H]3O)[C@H]2O)C(O)CC1O (stereo partly specified)", "yes (1)"],
  ["COc1ccc2oc(-c3ccccc3OC)cc(=O)c2c1", "yes (1)"],
  ["Cc1cc2nc3c(=O)[nH]c(=O)nc-3n(CC(O)C(O)C(O)CO)c2cc1C (stereo unspecified)", "yes (1)"],
  ["COc1cc(/C=C/C(=O)N2CCC=CC2=O)cc(OC)c1OC", "no (0)"],
  ["CCN(CC)CC#CCOC(=O)C(O)(c1ccccc1)C1CCCCC1 (stereo unspecified)", "yes (1)"]
]}
